Data origin: ChEMBL document CHEMBL3885881

organism: Rattus norvegicus; assay: DrugMatrix - Regimen: Daily Repeat; format: toxicity, organism-based, Sprague-Dawley; parameters: regimen Daily Repeat, gender Male, age 6-8 weeks; conditions: in vivo, po, 0 mg/kg, 72 h, tissue Plasma, route oral GAVAGE, dose level Control, time 3 day, vehicle .5 % CMC
Observation Type: LACTATE DEHYDROGENASE (u/L)
The answer is to be given in u/L; state only the numeric part.

Summary for this compound, "O=c1[nH]cc(F)c(=O)[nH]1" : LACTATE DEHYDROGENASE is 256.17

Summary for this compound, "CCC[C@@H]1C[C@@H](C(=O)N[C@@H]([C@H]2O[C@H](SC)[C@H](O)[C@@H](O)[C@H]2O)[C@@H](C)O)N(C)C1" : LACTATE DEHYDROGENASE is 154.33

Summary for this compound, "CN1CCC[C@@H]1CCO[C@](C)(c1ccccc1)c1ccc(Cl)cc1" : LACTATE DEHYDROGENASE is 386

Summary for this compound, CCOC(=O)OC(C)OC1=C(C(=O)Nc2ccccn2)N(C)S(=O)(=O)c2ccccc21 (centres undefined) : LACTATE DEHYDROGENASE is 262.33
